experiment: chemical genetic growth profiling, strain panel (AID 1159580);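 further: tested at 20 µM; growth read once vehicle control cultures reached saturation at 30 °C; 1 = growth at the plate median or of vehicle wells; lower values mean less growth of the strain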; settings: S. cerevisiae deletion strains, growth OD, locus YML016C, strain PPZ1, stronger effect = lower value
Screen size: about 5,500 compounds; about 2,000 (36%) were called active. Another 18% or so got no clear call; they are omitted. This is one part of the list.
Doc: threshold 1 (exclusive). Items with normalized growth beneath it return 1; others return 0.

compound: CC(=O)O[C@H]1C(=O)[C@@]2(C)C([C@H](OC(=O)c3ccccc3)[C@]3(O)C[C@H](OC(=O)[C@H](O)[C@@H](NC(=O)c4ccccc4)c4ccccc4)C(C)=C1C3(C)C)[C@]1(OC(C)=O)CO[C@@H]1C[C@@H]2O (stereo partly specified)
label: 0
--
compound: C[CH2][Hg][S]c1ccccc1C(=O)O
label: 1

----------
test: chemical genetic growth profiling, strain panel (AID 1159580);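 further: tested at 20 µM; growth read once vehicle control cultures reached saturation at 30 °C; 1 = growth at the plate median or of vehicle wells; lower values mean less growth of the strain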; conditions: S. cerevisiae deletion strains, growth OD, locus YGL173C, strain kem1, stronger effect = lower value
In all, about 5,500 compounds went through this assay and about 2,000 (36%) were called active. About 18% were inconclusive and are not listed. The list shows a part of the results.
List of normalized growth values.

compound: CCCCOc1ccc(OCCCN2CCOCC2)cc1
normalized growth: 0.929
--
compound: C[C@@H]1O[C@@H](O[C@H]2[C@@H](Oc3cc(O)c4c(c3)O[C@H](c3ccc(O)cc3)CC4=O)O[C@H](CO)[C@@H](O)[C@@H]2O)[C@H](O)[C@H](O)[C@H]1O
normalized growth: 0.946
--
compound: CC(=O)OC1CC23CC24CCC(OC2OCC(O)C(O)C2O)C(C)(C)C4CCC3C2(C)CC3OC4(CC(C)C3C12C)OC(O)C1(C)OC41 (centres undefined)
normalized growth: 1.01
--
compound: O=C1C[C@@H](c2ccc(O)cc2)Oc2cc(O)cc(O)c21
normalized growth: 0.969

----------
assay: chemical genetic growth profiling, strain panel (AID 1159580);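 further: tested at 20 µM; growth read once vehicle control cultures reached saturation at 30 °C; 1 = growth at the plate median or of vehicle wells; lower values mean less growth of the strain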; conditions: S. cerevisiae deletion strains, growth OD, locus YEL003W, strain gim4, stronger effect = lower value
Among all 5,500 compounds or so, about 2,000 (36%) were called active. Roughly 18% stayed inconclusive and do not appear here. This is one part of the list.
Quick reference: normalized growth of the listed items.

compound: COc1cc(O)c2c(=O)cc(C)oc2c1CC=C(C)C
normalized growth: 0.957
--
compound: CC(C)(C)CC(C)(C)c1ccc(OCCOCC[N+](C)(C)Cc2ccccc2)cc1
normalized growth: 0.0568
--
compound: CC1(C)S[C@@H]2[C@H](NC(=O)[C@H](NC(=O)N3CCNC3=O)c3ccccc3)C(=O)N2C1C(=O)O (some centres undefined)
normalized growth: 0.994
--
compound: C[N+](C)(C)CCOP(=O)([O-])OP(=O)(O)OC[C@H]1OC(n2ccc(N)nc2=O)[C@H](O)[C@@H]1O (some centres undefined)
normalized growth: 0.986
--
compound: COc1ccc(C(=O)c2ccccc2)c(O)c1
normalized growth: 0.778
--
compound: NC(N)=Nc1nc(CSCCC(N)=NS(N)(=O)=O)cs1
normalized growth: 0.983
--
compound: CC(C)=CCc1c(O)cc2oc(C)cc(=O)c2c1O
normalized growth: 0.976
--
compound: CCCCCC(C)N (centres undefined)
normalized growth: 1.02
--
compound: Cc1cc(C(C)(C)CC(C)(C)C)ccc1OCCOCC[N+](C)(C)Cc1ccccc1
normalized growth: 0.0521
--
compound: O=C1CC(c2ccc(O)c(O)c2)Oc2cc(O)cc(O)c21 (centres undefined)
normalized growth: 0.994
--
compound: O=C1C[C@@H](c2ccc(O)cc2)Oc2cc(O)cc(O)c21
normalized growth: 0.977
--
compound: COC(=O)[C@@H]1C(O)CC[C@H]2CN3CCc4c([nH]c5ccccc45)[C@@H]3C[C@@H]21 (some centres undefined)
normalized growth: 1.02
--
compound: COc1ccc(C(=O)c2ccccc2O)c(O)c1
normalized growth: 0.83
--
compound: CN=C(NC#N)NCCSCc1nc[nH]c1C
normalized growth: 1.01
--
compound: CC(C)N(C(=O)CCl)c1ccccc1
normalized growth: 1
--
compound: CCC(C(=O)O)c1ccccc1 (centres undefined)
normalized growth: 0.997
--
compound: Cc1cc(=O)c2c(O)cc(O)c(C)c2o1
normalized growth: 0.95
--
compound: COc1cccc2c1CCC1CC(=O)CCC21C (centres undefined)
normalized growth: 0.981
--
compound: NC[C@@H]1O[C@H](O[C@@H]2[C@@H](CO)OC(O[C@@H]3[C@@H](O)[C@H](N)C[C@H](N)[C@H]3OC3O[C@H](CN)[C@@H](O)[C@H](O)[C@H]3N)[C@@H]2O)[C@H](N)[C@@H](O)[C@@H]1O (some centres undefined)
normalized growth: 1.02
--
compound: COc1ccc2c(c1)[C@@]1(C)CCC(=O)C[C@H]1CC2
normalized growth: 0.942
--
compound: COc1c(O)cc2oc3cc(O)c(CC=C(C)C)c(O)c3c(=O)c2c1CC=C(C)C
normalized growth: 0.937
--
compound: CC(=O)CC(=O)CCC(=O)O
normalized growth: 1.02
--
compound: CC(C)[C@H](N)C(=O)OCCOCn1cnc2c(=O)[nH]c(N)nc21
normalized growth: 0.996
--
compound: O=c1ccc2ccccc2o1
normalized growth: 0.957

These data points were gathered from PubChem BioAssay AID1159580.
